Assign Kd to each entry below.
TARGET_OR_TEST_SYSTEM: CYP110 (Nostoc sp. PCC 7120 = FACHB-418)
Construct: recombinant, expressed in E. coli from pUC8 vector, purified soluble fraction; about 50 kDa; U38537 is the complete nifD element carrying cyp110
Sequence (P29980 1-459): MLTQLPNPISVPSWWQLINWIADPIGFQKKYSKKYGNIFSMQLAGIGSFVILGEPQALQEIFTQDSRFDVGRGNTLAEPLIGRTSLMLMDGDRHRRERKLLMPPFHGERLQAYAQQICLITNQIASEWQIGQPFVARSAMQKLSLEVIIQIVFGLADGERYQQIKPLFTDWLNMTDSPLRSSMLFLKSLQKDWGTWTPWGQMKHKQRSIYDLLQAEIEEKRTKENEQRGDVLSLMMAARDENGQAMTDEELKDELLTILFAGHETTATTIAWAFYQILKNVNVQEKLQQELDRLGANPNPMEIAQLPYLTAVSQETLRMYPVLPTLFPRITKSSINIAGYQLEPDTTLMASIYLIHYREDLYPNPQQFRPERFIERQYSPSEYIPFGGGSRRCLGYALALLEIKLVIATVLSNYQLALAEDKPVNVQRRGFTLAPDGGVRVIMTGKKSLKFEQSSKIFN
ASSAY_INFO: UV-visible spectral shift titration
Assay type: binding
CONDITION_LABEL: read-out: Ks
Respond numerically; units are µM and should not be typed.

Briefly, Kd measured for `CCCCCCCCCCCC(=O)O` : 1900

Briefly, Kd measured for `CCCCCC=CCC=CCCCCCCCC(=O)O` : 720

Briefly, Kd measured for `CCCCCCCCCCCCCCCC(=O)O` : 500

Briefly, Kd measured for `CCCCCCCCN` : 81

Briefly, Kd measured for `CCCCCCN` : 320

Briefly, Kd measured for CCCCCCCCCCCC(N)=O [Lauryl Amide] : 2210

Briefly, Kd measured for `CCCCCCCCCCCCCCCCC(=O)O` : 1100

Briefly, Kd measured for `CCCCCCCCCCCCCCCCCC(=O)O` : 3100

Briefly, Kd measured for `CCCCCCCCCCCCN` : 12

Briefly, Kd measured for CCCCCCCCCCCC(=O)NC [N-methyl Lauryl Amide] : 2560

Briefly, Kd measured for `CC/C=C\C/C=C\C/C=C\CCCCCCCC(=O)O` : 62

Briefly, Kd measured for `CCCCCN` : 540

Briefly, Kd measured for `CCCCCCCCCCCCCCC(=O)O` : 210

Briefly, Kd measured for `CCCCCCCCCN` : 62

Briefly, Kd measured for `CCCCC/C=C\C/C=C\C/C=C\C/C=C\CCCC(=O)O` : 51

Briefly, Kd measured for `CCCCCCCCCCCCC(=O)O` : 850

Briefly, Kd measured for `NCCCCCCCCCCCC(=O)O` : 416

Briefly, Kd measured for `CCCCCCCN` : 102

Briefly, Kd measured for `CCCCCCCCCCCCCC(=O)O` : 91

Briefly, Kd measured for `CCCCCCCCCCN` : 41
